Sequence of the target: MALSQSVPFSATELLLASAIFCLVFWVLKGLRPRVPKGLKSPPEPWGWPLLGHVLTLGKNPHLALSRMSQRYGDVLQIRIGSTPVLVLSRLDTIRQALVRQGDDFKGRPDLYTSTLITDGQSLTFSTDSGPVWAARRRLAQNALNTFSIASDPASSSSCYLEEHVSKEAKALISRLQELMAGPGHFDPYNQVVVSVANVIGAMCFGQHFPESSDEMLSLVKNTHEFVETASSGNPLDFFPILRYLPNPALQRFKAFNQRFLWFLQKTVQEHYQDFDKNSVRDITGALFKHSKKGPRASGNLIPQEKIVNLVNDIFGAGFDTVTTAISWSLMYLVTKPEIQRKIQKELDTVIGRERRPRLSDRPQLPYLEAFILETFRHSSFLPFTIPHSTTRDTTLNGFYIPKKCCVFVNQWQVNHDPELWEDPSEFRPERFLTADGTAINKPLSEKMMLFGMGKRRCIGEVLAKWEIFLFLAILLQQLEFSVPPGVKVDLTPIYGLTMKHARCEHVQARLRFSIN
pIC50: −log10 of the molar value.
ASSAY_ENDPOINT: pIC50

For Cc1cccc2c(Nc3cccc(-c4nc5c(C(N)=O)cccc5[nH]4)c3)c3ccccc3nc12 , what is its reported pIC50?
< 5.00
